Biological target: Full-length (FL)-PRMT5-MEP50 enzyme complex (Homo sapiens, UniProt O14744)
Construct: Full-length (FL)-PRMT5-MEP50 enzyme complex (recombinant proteins from baculovirus-transfected Sf21 cells: FL-PRMT5; MW=73837 kDa and FL-MEP50; MW=38614); made in house; host or cells: baculovirus-transfected Sf21 insect cells
Sequence (O14744 whole entry): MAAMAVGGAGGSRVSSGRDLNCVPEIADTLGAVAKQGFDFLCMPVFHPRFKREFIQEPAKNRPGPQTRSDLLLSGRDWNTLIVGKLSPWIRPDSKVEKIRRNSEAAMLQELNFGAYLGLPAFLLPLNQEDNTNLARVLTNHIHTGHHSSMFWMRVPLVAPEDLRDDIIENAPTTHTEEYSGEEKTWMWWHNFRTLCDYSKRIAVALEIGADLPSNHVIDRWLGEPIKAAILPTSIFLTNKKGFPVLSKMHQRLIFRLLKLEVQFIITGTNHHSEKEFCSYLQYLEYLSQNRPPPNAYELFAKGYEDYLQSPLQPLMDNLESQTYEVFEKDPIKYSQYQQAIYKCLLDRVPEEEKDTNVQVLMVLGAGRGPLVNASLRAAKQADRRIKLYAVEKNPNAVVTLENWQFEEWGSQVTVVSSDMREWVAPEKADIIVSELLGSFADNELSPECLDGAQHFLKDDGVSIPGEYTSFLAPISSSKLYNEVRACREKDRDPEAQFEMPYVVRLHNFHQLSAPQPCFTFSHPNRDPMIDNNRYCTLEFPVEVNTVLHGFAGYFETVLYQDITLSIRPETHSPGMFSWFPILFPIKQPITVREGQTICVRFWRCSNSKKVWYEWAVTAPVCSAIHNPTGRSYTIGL
Sequence (Q9BQA1 whole entry partner): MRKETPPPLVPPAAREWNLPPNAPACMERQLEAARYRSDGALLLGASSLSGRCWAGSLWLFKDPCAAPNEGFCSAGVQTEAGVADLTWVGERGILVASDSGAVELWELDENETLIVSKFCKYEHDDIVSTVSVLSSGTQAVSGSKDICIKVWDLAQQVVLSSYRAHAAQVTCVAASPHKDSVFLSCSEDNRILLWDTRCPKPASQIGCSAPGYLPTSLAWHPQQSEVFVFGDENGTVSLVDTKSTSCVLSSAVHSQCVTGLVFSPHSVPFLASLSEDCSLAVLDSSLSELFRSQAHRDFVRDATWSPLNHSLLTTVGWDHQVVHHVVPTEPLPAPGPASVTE
Test: PRMT5-MEP50 Enzyme Methylation Assay
Format: biochemical
Details: one EC50: 4 parameters single site sigmoidal model; EC50 1: first value of 7 parameters biphasic model; 1.0 nM PRMT5-MEP50, 75 nM biotinylated peptide, 15 μM SAM; read-out: Enzyme Methylation Assay (EC50 or EC50 1)
Procedure: PRMT5-MEP50 biochemical assay is a direct measurement of the methylation activity of the enzyme complex on a short peptide substrate derived from the N-terminus of H4 histone. Methylation experiment is performed with recombinant PRMT5-MEP50 protein complex. The assessment of inhibitory effect of small molecules is measured by the effectiveness of the compounds to inhibit this reaction (EC50). […]
# maps each entry to its EC50
Give the number first and the unit second.

// solved cases for EC50 follow
> print(dat)
                                   molecule  test.result
1  Cc1ncnc2c1ccn2[C@@H]1C[C@@H]2[C@H](Cc3ccc4cc(Br)c(N)nc4c3)CC[C@]2(O)[C@H]1O       0.4 nM
2  Cc1ncnc2c1ccn2[C@@H]1C[C@](C)(CCc2ccc3cc(Br)c(N)nc3c2)[C@@H](O)[C@H]1O       0.7 nM
3  C[C@@]1(O)[C@@H](CCc2ccc3cc(Br)c(N)nc3c2)C[C@@H](n2ccc3c(N)ncnc32)[C@@H]1O       0.4 nM
4  Nc1nc2cc(C[C@@H]3CC[C@@]4(O)[C@@H]3O[C@@H](n3ccc5c(N)ncnc53)[C@@H]4O)ccc2cc1Cl       0.8 nM
5  Nc1nc2cc(O[C@H]3CC[C@@]4(O)[C@@H]3O[C@@H](n3ccc5c(N)ncnc53)[C@@H]4O)ccc2cc1C(F)F       0.7 nM

Proceed to the following item.
-- ask GET /values?readout=EC50&item= `Cc1cn([C@@H]2C[C@@H]3[C@H](Cc4ccc5cc(Cl)c(N)nc5c4)CC[C@]3(O)[C@H]2O)c2ncnc(N)c12`
-- reply 0.3 nM
